Ref: patent US20240239801A1

Measured IC50 values are reported for all entries that follow.
target: ARAF (Homo sapiens, UniProt P10398); assay: ARAF kinase activity assay (AlphaLISA p-MEK detection); type: biochemical; details: Table A
Sequence (P10398 310-570 limits assumed): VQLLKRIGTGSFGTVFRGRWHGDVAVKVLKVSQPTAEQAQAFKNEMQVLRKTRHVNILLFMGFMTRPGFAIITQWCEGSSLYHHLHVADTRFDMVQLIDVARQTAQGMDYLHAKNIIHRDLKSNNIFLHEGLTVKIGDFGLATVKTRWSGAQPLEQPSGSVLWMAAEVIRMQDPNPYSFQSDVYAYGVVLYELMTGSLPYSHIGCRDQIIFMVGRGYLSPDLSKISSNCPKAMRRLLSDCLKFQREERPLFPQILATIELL

>  <molecule>
O=C1CCc2c(Oc3ccc4c(c3)[C@@H]3[C@H](O4)[C@H]3c3nc4ccc(C(F)(F)F)cc4[nH]3)ccnc2N1 [BGB283, reference compound]

>  <IC50>
> 20 nM

$$$$
>  <molecule>
Cc1ccc(NC(=O)c2ccnc(C(F)(F)F)c2)cc1-c1cc(OCCO)nc(N2CCOCC2)c1 [LXH254, reference compound]

>  <IC50>
> 20 nM

$$$$
>  <molecule>
O=S(=O)(Nc1ccc(F)c(Nc2ncnc3cnc(-n4cnc5c(N6CCC7(CCCO7)CC6)cccc54)nc23)c1F)c1cccc(Cl)c1Cl [Example 129]

>  <IC50>
10 to 20 nM

$$$$
